// data source = ChEMBL document CHEMBL4052819

# Test system: Acinetobacter baumannii
# measurement-notes: Bactericidal activity against Acinetobacter baumannii ATCC 19606
# Type: functional
# particulars: ATCC 19606 = CIP 70.34 = JCM 6841, read-out: MBC99.9
Non-standard residues stand in square brackets, D forms with d. Residues, ends and D or L forms follow the SMILES beside them. *: point of attachment. Heptanoyl = CCCCCCC(=O)*; Dab = NCC[C@H](N)C(=O)O
Assignment: determine reported MBC for the given molecules.
One number for each entry, in µg/mL.

Q. Return value of MBC for input CCCCCCC(=O)N[C@@H](CCN)C(=O)N[C@H](C(=O)N[C@@H](CCN)C(=O)N[C@H](Cc1ccccc1)C(=O)N[C@@H](CC(C)C)C(=O)N[C@@H](CCN)C(=O)N[C@H](CC(C)C)C(=O)N[C@@H](CC(C)C)C(=O)N[C@@H](CO)C(N)=O)[C@@H](C)CC (Heptanoyl-[Dab]I[Dab][dF]L[Dab][dL]LS-NH2) , no commentary.
A. 16

---
Q. Return value of MBC for input CCCCCCC(=O)N[C@@H](CCN)C(=O)N[C@@H](Cc1ccccc1)C(=O)N[C@@H](CCN)C(=O)N[C@H](Cc1ccccc1)C(=O)N[C@@H](CC(C)C)C(=O)N[C@@H](CCN)C(=O)N[C@H](CC(C)C)C(=O)N[C@@H](CC(C)C)C(=O)N[C@@H](CO)C(N)=O (Heptanoyl-[Dab]F[Dab][dF]L[Dab][dL]LS-NH2) , no commentary.
A. 8

====

# Test system: Escherichia coli
# measurement-notes: Antibacterial activity against Escherichia coli ATCC 25922 in presence of 100% serum after 6 hrs by broth microdilution method
# Assay type: functional
# particulars: ATCC 25922, 6 h
Non-standard residues stand in square brackets, D forms with d. Residues, ends and D or L forms follow the SMILES beside them. *: point of attachment. Octanoyl = CCCCCCCC(=O)*; Dab = NCC[C@H](N)C(=O)O
Assignment: determine reported MIC for the given compounds.
Numbers only, in µg/mL.

Q. Return value of MIC for input CCCCCCCC(=O)N[C@@H](CCN)C(=O)N[C@H](C(=O)N[C@@H](CCN)C(=O)N[C@H](Cc1ccccc1)C(=O)N[C@@H](CC(C)C)C(=O)N[C@@H](CCN)C(=O)N[C@@H](C(=O)N[C@@H](CC(C)C)C(=O)N[C@@H](CCN)C(N)=O)C(C)C)[C@@H](C)CC (Octanoyl-[Dab]I[Dab][dF]L[Dab][dV]L[Dab]-NH2) , no commentary.
A. 2

Below: the item to evaluate.
Q. Return value of MIC for input CCCCCCCC(=O)N[C@@H](CCN)C(=O)N[C@H](C(=O)N[C@@H](CCN)C(=O)N[C@H](Cc1ccccc1)C(=O)N[C@@H](CC(C)C)C(=O)N[C@@H](CCN)C(=O)N[C@@H](C(=O)N[C@@H](CC(C)C)C(=O)N[C@@H](CO)C(N)=O)C(C)C)[C@@H](C)CC (Octanoyl-[Dab]I[Dab][dF]L[Dab][dV]LS-NH2) , no commentary.
A. 8

====

Assignment: determine reported MBC for the given molecules.
# Test system: Acinetobacter baumannii
# measurement-notes: Bactericidal activity against Acinetobacter baumannii ATCC 19606
# Assay type: functional
# particulars: ATCC 19606 = CIP 70.34 = JCM 6841, read-out: MBC99.9
Non-standard residues stand in square brackets, D forms with d. Residues, ends and D or L forms follow the SMILES beside them. *: point of attachment. Cha = N[C@@H](CC1CCCCC1)C(=O)O; Decanoyl = CCCCCCCCCC(=O)*; Heptanoyl = CCCCCCC(=O)*; Octanoyl = CCCCCCCC(=O)*; Dab = NCC[C@H](N)C(=O)O

Answered cases to consult:
Q. Return value of MBC for input CCCCCCCCCC(=O)N[C@@H](CCN)C(=O)N[C@H](C(=O)N[C@@H](CCN)C(=O)N[C@H](Cc1ccccc1)C(=O)N[C@@H](CC(C)C)C(=O)N[C@@H](CCN)C(=O)N[C@@H](C(=O)N[C@@H](CC(C)C)C(=O)N[C@@H](CO)C(N)=O)C(C)C)[C@@H](C)CC (Decanoyl-[Dab]I[Dab][dF]L[Dab][dV]LS-NH2) , no commentary.
A. 0.5 to 2 µg/mL

Q. Return value of MBC for input CCCCCCCC(=O)N[C@@H](CCN)C(=O)N[C@H](C(=O)N[C@@H](CCN)C(=O)N[C@H](Cc1ccccc1)C(=O)N[C@@H](CC(C)C)C(=O)N[C@@H](CCN)C(=O)N[C@@H](C(=O)N[C@@H](CC(C)C)C(=O)N[C@@H](CO)C(N)=O)C(C)C)[C@@H](C)CC (Octanoyl-[Dab]I[Dab][dF]L[Dab][dV]LS-NH2) , no commentary.
A. 16 to 32 µg/mL

Q. Return value of MBC for input CCCCCCC(=O)N[C@@H](CCN)C(=O)N[C@@H](Cc1ccccc1)C(=O)N[C@@H](CCN)C(=O)N[C@H](Cc1ccccc1)C(=O)N[C@@H](CC(C)C)C(=O)N[C@@H](CCN)C(=O)N[C@H](CC(C)C)C(=O)N[C@@H](Cc1ccccc1)C(=O)N[C@@H](CO)C(N)=O (Heptanoyl-[Dab]F[Dab][dF]L[Dab][dL]FS-NH2) , no commentary.
A. 4 µg/mL

---
Q. Return value of MBC for input CC(C)C[C@H](NC(=O)[C@@H](Cc1ccccc1)NC(=O)[C@H](CCN)NC(=O)[C@H](Cc1ccccc1)NC(=O)[C@H](CCN)NC(=O)[C@@H](N)CC1CCCCC1)C(=O)N[C@@H](CCN)C(=O)N[C@H](CC(C)C)C(=O)N[C@@H](Cc1ccccc1)C(=O)N[C@@H](CO)C(N)=O (H-[Cha][Dab]F[Dab][dF]L[Dab][dL]FS-NH2) , no commentary.
A. 4 to 8 µg/mL

====

# Tested on: Escherichia coli
# measurement-notes: Antibacterial activity against Escherichia coli ATCC 25922 after 18 to 20 hrs by broth microdilution method
# Format: functional
Non-standard residues stand in square brackets, D forms with d. Residues, ends and D or L forms follow the SMILES beside them. Cha = N[C@@H](CC1CCCCC1)C(=O)O; Dab = NCC[C@H](N)C(=O)O
measured-metric: MIC

Q. Answer briefly: MIC recorded on Escherichia coli for CC[C@H](C)[C@H](NC(=O)[C@H](CCN)NC(=O)[C@@H](N)CC1CCCCC1)C(=O)N[C@@H](CCN)C(=O)N[C@H](Cc1ccccc1)C(=O)N[C@@H](CC(C)C)C(=O)N[C@@H](CCN)C(=O)N[C@@H](C(=O)N[C@@H](CC(C)C)C(=O)N[C@@H](CO)C(N)=O)C(C)C (H-[Cha][Dab]I[Dab][dF]L[Dab][dV]LS-NH2)
A. 4 to 8 µg/mL

====

# Test system: Escherichia coli
# measurement-notes: Antibacterial activity against Escherichia coli ATCC 25922 in presence of 100% serum after 24 hrs by broth microdilution method
# Assay type: functional
# particulars: ATCC 25922, 24 h
Non-standard residues stand in square brackets, D forms with d. Residues, ends and D or L forms follow the SMILES beside them. *: point of attachment. Cha = N[C@@H](CC1CCCCC1)C(=O)O; Octanoyl = CCCCCCCC(=O)*; Dab = NCC[C@H](N)C(=O)O
Assignment: determine reported MIC for the given compounds.
Answers are plain numbers, in µg/mL.

Answered cases to consult:
Q. Return value of MIC for input CCCCCCCC(=O)N[C@@H](CCN)C(=O)N[C@H](C(=O)N[C@@H](CCN)C(=O)N[C@H](Cc1ccccc1)C(=O)N[C@@H](CC(C)C)C(=O)N[C@@H](CCN)C(=O)N[C@@H](C(=O)N[C@@H](CC(C)C)C(=O)N[C@@H](CO)C(N)=O)C(C)C)[C@@H](C)CC (Octanoyl-[Dab]I[Dab][dF]L[Dab][dV]LS-NH2) , no commentary.
A. 8

Q. Return value of MIC for input CCCCCCCC(=O)N[C@@H](CCN)C(=O)N[C@H](C(=O)N[C@@H](CCN)C(=O)N[C@H](Cc1ccccc1)C(=O)N[C@@H](CC(C)C)C(=O)N[C@@H](CCN)C(=O)N[C@@H](C(=O)N[C@@H](CC(C)C)C(=O)N[C@@H](CCN)C(N)=O)C(C)C)[C@@H](C)CC (Octanoyl-[Dab]I[Dab][dF]L[Dab][dV]L[Dab]-NH2) , no commentary.
A. 2

Below: the item to evaluate.
Q. Return value of MIC for input CC(C)C[C@H](NC(=O)[C@@H](Cc1ccccc1)NC(=O)[C@H](CCN)NC(=O)[C@H](Cc1ccccc1)NC(=O)[C@H](CCN)NC(=O)[C@@H](N)CC1CCCCC1)C(=O)N[C@@H](CCN)C(=O)N[C@H](CC(C)C)C(=O)N[C@@H](Cc1ccccc1)C(=O)N[C@@H](CO)C(N)=O (H-[Cha][Dab]F[Dab][dF]L[Dab][dL]FS-NH2) , no commentary.
A. 8
